target: revertant virus (AD169 CMV with the pentameric gH complex restored); experiment: cell-based or functional assay
measure-name: Neutralization in MRC-5 cells EC50 (µg/mL)
Numbers only, in µg/mL.

As a guide, the following entries are already answered.
1. 240.8 (antibody, V domains shown, rabbit hybridoma mAb; also called clone 240.8) VH: QSVEESGGGLVTPGGTLTLTCGVSGIDLSANEMGWVRQAPGEGLEWIGTLSYHNIPHYATWAKGRFTISKTSTTVDLKITSPTSADTATYFCGRVFTSTSFDPWGPGTLVTISS VL: ELVMTHPPASVSAPVGGTVTIKCQASHNIGSRLPWYQQEPGQPPKLLIYRTSTLASGVPSRFTGSGYGTEFTLTISDLECADAATYYCQDHDDISHAFGGGTNVEIK
100
2. 350.1 (antibody, V domains shown, rabbit hybridoma mAb; also called clone 350.1; mAb 350.1) VH: QSLEESGGDLVKPGASLTLTCTASGFSFSNSYYMCWVRQAPGKGLEWIVCIYAGSSGFTYYANWAKGRFTVSKTSSTTVTLQMTSLTAADTATYFCARDRGYYTYGYAGYGYGMDLWGPGTLVTISS VL: ELDMTQTPSPVSTAVGGTVSISCQSGQNVWTNDYLSWYQQKPGQPPKLLIYRASTLASGVPSRFKGSGSGTQFTLTISDVQCDDAATYYCGGTFLSNGDNGFGGGTEVVVK
100
3. 58.5 (antibody, V domains shown, rabbit hybridoma mAb (not the humanized version); also called clone 58.5) VH: QSLEESGGRLVTPGGSLTLTCTVSGFSLSAYSVSWVRQAPGKGLEWIGIIGHSGNTYYASWAKGRFTISKTSTTVDLKITSLTTEDTATYFCAREDYRYGDYGYYWDFNFWGPGTLVTISS VL: ELDLTQTASPVSAPVGGTVTINCQASQNIYSNLAWYQQKPGQPPKLLIYGASTLASGVSSRFKGSRSGTEFTLTISDLECADAATYYCQSYVYSSSTADTFGGGTEVVVK
100

Now for the binder whose Neutralization in MRC-5 cells EC50 we want.
Prompt line: Supply recorded Neutralization in MRC-5 cells EC50 for 70.7 (antibody, V domains shown, rabbit hybridoma mAb; also called clone 70.7) VH: QSVEESRGRLVTPGTPLTLTCTASGFSLSSYHMIWVRQAPGKGLEWIGYINYNNNPYYATWAKGRFTISRTSTTVALKITSPTTEDSATYFCARAAGNYYVGALNLWGPGTLVTISS VL: ERDMTQTPASVEVAVGGTVTIKCQASQSIGNLLAWYQQKPGQRPKLLIYDASTLASGVPSRFKGSGSGTEFTLTISGVQCADAATYYCQQGYMITNVENAFGGGTEVVVK here.
Response line: 0.09
